Values were extracted from BindingDB's records for doi:10.1016/j.bmcl.2020.127004.

Test: Non-nucleoside inhibition of NS5B polymerase in HCV genotype 1b by Taqman probe based RT-PCR analysis
pEC50: −log10 of the molar value.
reported-property: pEC50

{"molecule": "CNC(=O)c1c(-c2ccc(F)cc2)oc2cc(N(C)S(C)(=O)=O)c(-c3ccc4nc(C)n(Cc5ccc(F)cc5)c(=O)c4c3)cc12 [US9364482, 55]", "observed-result": 8.96}
{"molecule": "CNC(=O)c1c(-c2ccc(F)cc2)oc2cc(N(C)S(C)(=O)=O)c(-c3ccc4nnn(C(CO)c5ccc(F)cc5)c(=O)c4c3)cc12 (stereo not drawn)", "observed-result": 8.25}
{"molecule": "CNC(=O)c1c(-c2ccc(F)cc2)oc2cc(N(C)S(C)(=O)=O)c(-c3ccc4nnn([C@H](COC)c5ccc(F)cc5)c(=O)c4c3)cc12 [US9364482, 39]", "observed-result": 8.59}
{"molecule": "CNC(=O)c1c(-c2ccc(F)cc2)oc2cc(N(C)S(C)(=O)=O)c(-c3cc(OC)c4nnn(Cc5ccc(F)cc5)c(=O)c4c3)cc12 [US9364482, 71]", "observed-result": 8.80}
{"molecule": "CNC(=O)c1c(-c2ccc(F)cc2)oc2cc(N(C)S(C)(=O)=O)c(-c3ccc4ncn(Cc5ccccc5)c(=O)c4c3)cc12 [US9364482, 49]", "observed-result": 8.46}
{"molecule": "CNC(=O)c1c(-c2ccc(F)cc2)oc2cc(N(C)S(C)(=O)=O)c(-c3ccc4nc(C)n(Cc5ccc(F)cc5OC)c(=O)c4c3)cc12", "observed-result": 8.82}
{"molecule": "CNC(=O)c1c(-c2ccc(F)cc2)oc2cc(N(C)S(C)(=O)=O)c(-c3cc4c(=O)n(Cc5ccc(F)cc5)nnc4cc3C)cc12 [US9364482, 72]", "observed-result": 8.36}
{"molecule": "CNC(=O)c1c(-c2ccc(F)cc2)oc2cc(N(C)S(C)(=O)=O)c(-c3ccc4nnn(Cc5ccc(F)cc5)c(=O)c4c3)cc12 [US9364482, 44]", "observed-result": 8.41}
{"molecule": "CNC(=O)c1c(-c2ccc(F)cc2)oc2cc(N(C)S(C)(=O)=O)c(-c3ccc4nnn(Cc5ccc(F)cn5)c(=O)c4c3)cc12 [US9364482, 48]", "observed-result": 8.57}
{"molecule": "CNC(=O)c1c(-c2ccc(F)cc2)oc2cc(N(C)S(C)(=O)=O)c(-c3ccc4nc(C)n([C@@H](COC)c5ccc(F)cc5)c(=O)c4c3)cc12", "observed-result": 8.96}
{"molecule": "CNC(=O)c1c(-c2ccc(F)cc2)oc2cc(N(C)S(C)(=O)=O)c(-c3ccc4c(n3)C(=O)N(c3ccc(F)cc3)CO4)cc12 [US9364482, 2]", "observed-result": 8.42}
{"molecule": "CNC(=O)c1c(-c2ccc(F)cc2)oc2cc(N(C)S(C)(=O)=O)c(-c3cc4c(=O)n(Cc5ccc(F)cc5)nnc4cc3F)cc12 [US9364482, 70]", "observed-result": 8.57}
{"molecule": "CNC(=O)c1c(-c2ccc(F)cc2)oc2cc(N(C)S(C)(=O)=O)c(-c3ccc4nc(COC)n(Cc5ccc(F)cc5)c(=O)c4c3)cc12 [US9364482, 53]", "observed-result": 8.62}
